Biological target: monomeric alpha-synuclein, P37840
Assay: SPR, captured mAb
Conditions: remark: other sources report otherwise
Readout Type: kon (M⁻¹ s⁻¹)
Give bare numbers, in M⁻¹ s⁻¹.

| Binder | Reported |
| --- | --- |
| ACI-7088-4317A4-Ab1 (antibody, V domains shown) VH: EVQLQQSGAELVRPGASVKLSCTASGFNIKDDYMHWVKQRPEQGLEWIGWIDPENGDTEYASKFQGKATMTADTSSNTAYLQLSSLTSEDTAVYYCKTWGTTQALFPYWGQGTLVTVSA VL: DIVMTQSQKFMYTSVGDRVSITCKASQNVGNAVGWYQQKAGQSPKLLIHSASNRYTGVPDRFTGTGSGTDFTLTINNMQSEDLADYFCQQYRSYPLTFGAGTKLELK | 3280 |
| ACI-7079-2605B3-Ab2 (antibody, V domains shown) VH: EVQLVESGGGLVQPKGSLKLSCAASGFIFKTYAMHWVRQAPGKGLEWVARIRSKGGNYATYFADSVKDRFTISRDDSQNMLYLQVNNLKIEDTAMYFCVRGGNYSWFAYWGQGTLVTVSA VL: QIVLTQSPAIMSASPGEKVTMTCSASSSVTYMHWYQQKSGTSPKRWIYDTSQLASGVPARFSGSGSGTSHSLTISSMETEDAATYYCQQWTRNPPTFGGGTKLAIK | 283000 |
| ACI-8033-18D12-Ab1 (antibody, V domains shown) VH: QVQLQQPGAELVKPGASVKMSCKASGYTFTSYWITWVRQRPGQGLDWIGDIYPGGGVTNYNEKFKTKATLTVDTSSSTAYMHLSSLTSEDSAVYFCATAQTTFAHWGQGTLVTVSA VL: DVLMTQTPLSLPVSLGDQASISCRSSQNIAHNNGNTYLEWYLQKPGQSPKLLIYKVSNRFSGVPDRFSGSGSGTDFTLKISRVEAEDLGVYYCFQGSHVPRTFGGGTKLEIK | 8.25e+07 |
| ACI-7079-2506F3-Ab1 (antibody, V domains shown) VH: QVQLQQPGAELVKPGASVKLSCKASGYTFTTYWMQWVKQRPGQGLEWIGEIDPSDSYINYNQKFKGKATLTVDTSSSTAFMQLSSLTSEDSAVYYCARGMMDYWGQGTSVTVSS VL: DVLMTQTPLSLPVSLGDQASISCRSSQSIVHSNGNTYLEWYLQKPGQSPKLLIYKVSNRFSGVPDRFSGSGSGTDFTLKISRVEAEDLGVYYCFKGSHVPYTFGGGTKLEIK | 210000 |

IN: Return reported kon; argument: ACI-7079-2603F3-Ab1 (antibody, V domains shown) VH: EVQLVESGGGLVQPKGSLKLSCAASGFTFNTYAMHWVRQAPGKGLEWVARIRSKGSNYATYYADSVKDRFTISRDDSQSMLYLQMNNLKTEDTAMYYCVRGGGDSWFAYWGQGTLVTVSA VL: QIVLTQSPAIMSASPGERVTMTCTASSSVSYMHWYQQKSGTSPKRWIYDTSKLASGVPARFSGSGSGASYTLTISSMEAEDAATYYCQQWNSNPPTFGGGTQLAIK
OUT: 50800

Source: patent US20250340623A1
